Hey, just so you know, these numbers are from patent US20210127673A1.

system: Lolium perenne (LOLPE); experiment: Pre-emergence herbicidal activity, Lolium perenne; assay type: in vivo; details: 1000 g/ha, evaluated after 13 days, Test 1b
QUANTITY: LOLPE damage score (0-5)
One number for each entry.

Known results for compounds:
In [3]: df
Out[3]:
                                   compound  number
0  Cc1nc(-c2cncnc2)ccc1NC(=O)OC(C)(C)C [Compound B28]       1
1  CN(C(=O)OC(C)(C)C)c1ccc(-c2cncc(F)c2)nc1C(F)(F)F [Compound B29]       1
2  CC(C)OC(=O)Nc1ccc(-c2cncc(F)c2)nc1C(F)(F)F [Compound B16]       1
3  Cc1nc(-c2cncc(OC(F)F)c2)ccc1NC(=O)OC(C)(C)C [Compound B13]       1
4  Cc1nc(-c2cncc(F)c2)ccc1NC(=O)OC(C)(C)C [Compound B19]       3

Batch request: LOLPE damage score (0-5) for each of the following compounds.
1. Cc1cncc(-c2ccc(N(C)C(=O)OC(C)(C)C)c(C(F)(F)F)n2)c1 [Compound B18]
2. CN(C(=O)OC(C)(C)C)c1ccc(-c2cncc(C(F)(F)F)c2)nc1C(F)(F)F [Compound B17]
3. CN(C(=O)OC(C)(C)C)c1ccc(-c2cccnc2)nc1C(F)(F)F [Compound B22]
4. COc1cncc(-c2ccc(NC(=O)OC(C)(C)C)c(C)n2)c1 [Compound B23]

Reply |
1: 0; 2: 0; 3: 1; 4: 1

Batch request: LOLPE damage score (0-5) for each of the following compounds.
1. CCOC(=O)Nc1ccc(-c2cncc(F)c2)nc1C(F)(F)F [Compound B15]
2. CN(C(=O)OC(C)(C)C)c1ccc(-c2cncnc2)nc1C(F)(F)F [Compound B31]
3. CCN(C(=O)OC(C)(C)C)c1ccc(-c2cncc(F)c2)nc1C(F)(F)F [Compound B14]

Reply |
[0, 1, 0]

Batch request: LOLPE damage score (0-5) for each of the following compounds.
1. Cc1nc(-c2cncc(C(F)(F)F)c2)ccc1NC(=O)OC(C)(C)C [Compound B24]
2. COc1cncc(-c2ccc(N(C)C(=O)OC(C)(C)C)c(C(F)(F)F)n2)c1 [Compound B21]

Reply |
1: 0; 2: 0

---

System: Avena fatua (AVEFA)
Experiment: Post-emergence herbicidal activity, Avena fatua
Type: in vivo
Settings: 1000 g/ha, evaluated after 13 days
Procedure: Seeds of a variety of test species were sown in standard soil in pots: Triticum aestivium (TRZAW), Avena fatua (AVEFA), Alopecurus myosuroides (ALOMY), Echinochloa crus-galli (ECHCG), Lolium perenne (LOLPE), Zea Mays (ZEAMX), Abutilon theophrasti (ABUTH), Amaranthus retroflexus (AMARE) and Setaria faberi (SETFA). […] After 13 days, the test was evaluated (5=total damage to plant; 0=no damage to plant).
QUANTITY: Control of AVEFA after post-emergence application (score 0-5)

Known results for compounds:
>>> print(df.to_string())
                              smiles_record  result
0  C#CC(C)(C)NC(=O)Nc1ccc(-c2cncc(F)c2)nc1C(F)(F)F       4
1  C=CCN(C(=O)N(C)C)c1ccc(-c2cncc(F)c2)nc1C(F)(F)F       2
2    CNC(=O)Nc1ccc(-c2cncc(F)c2)nc1C(F)(F)F       2
3  Cc1cc(CNC(=O)Nc2ccc(-c3cncc(F)c3)nc2C(F)(F)F)c(C(F)(F)F)o1       2
4  CON(C)C(=O)Nc1ccc(-c2cncc(F)c2)nc1C(F)(F)F       2
5  O=C(NOCC(F)F)Nc1ccc(-c2cncc(F)c2)nc1C(F)(F)F       3

Batch request: Control of AVEFA after post-emergence application (score 0-5) for each of the following compounds.
1. CNC(=O)N(C)c1ccc(-c2cncc(F)c2)nc1C(F)(F)F
2. O=C(Nc1ccc(-c2cncc(F)c2)nc1C(F)(F)F)N1CCSCC1
3. O=C(NCc1ccc(Cl)cc1)Nc1ccc(-c2cncc(F)c2)nc1C(F)(F)F

Reply |
1. 3
2. 4
3. 2
